// data source = ChEMBL document CHEMBL2440040

Please provide measured MIC for the entries that follow.
- Test system: Staphylococcus aureus
- PROCEDURE_TEXT: Antibacterial activity against methicillin-sensitive Staphylococcus aureus ATCC 29213 by broth microdilution method
- Type: functional

get_value(item= CC[C@H]1OC(=O)[C@H](C)[C@@H](O[C@H]2C[C@@](C)(OC)[C@@H](O[C@@H]3O[C@H](C)[C@@H](O)[C@H](N(C)C)[C@H]3O)[C@H](C)O2)[C@H](C)[C@@H](O[C@@H]2O[C@H](C)C[C@H](N(C)C)[C@H]2O)[C@@](C)(OC)C[C@@H](C)C(=O)[C@H](C)[C@H]2OC(=O)O[C@@]21C , readout=MIC) returns 16 µg/mL

get_value(item= CC[C@H]1OC(=O)[C@H](C)[C@@H](O[C@H]2C[C@@](C)(OC)[C@@H](O[C@@H]3O[C@H](C)[C@@H](OCc4ccccc4)[C@H](N(C)C)[C@H]3O)[C@H](C)O2)[C@H](C)[C@@H](O[C@@H]2O[C@H](C)C[C@H](N(C)C)[C@H]2O)[C@@](C)(OC)C[C@@H](C)C(=O)[C@H](C)[C@@H](O)[C@]1(C)O , readout=MIC) returns > 32 µg/mL

get_value(item= CC[C@H]1OC(=O)[C@H](C)[C@@H](O[C@H]2C[C@@](C)(OC)[C@@H](O)[C@H](C)O2)[C@H](C)[C@@H](O[C@@H]2O[C@H](C)C[C@H](N(C)C)[C@H]2O)[C@](C)(OC)C[C@@H](C)C(=O)[C@H](C)[C@@H](O)[C@]1(C)O [CLARITHROMYCIN] , readout=MIC) returns ≤ 1 µg/mL

---

- System: Streptococcus pneumoniae
- PROCEDURE_TEXT: Antibacterial activity against erythromycin-sensitive Streptococcus pneumoniae 12-4 by broth microdilution method
- Type: functional
EXPERIMENTAL_ENDPOINT: MIC (µg/mL)
Entry rule: numbers only, all in µg/mL.

get_value(item= CC[C@H]1OC(=O)[C@H](C)[C@@H](O[C@H]2C[C@@](C)(OC)[C@@H](O[C@@H]3O[C@H](C)[C@@H](O)[C@H](N(C)C)[C@H]3O)[C@H](C)O2)[C@H](C)[C@@H](O[C@@H]2O[C@H](C)C[C@H](N(C)C)[C@H]2O)[C@@](C)(OC)C[C@@H](C)C(=O)[C@H](C)[C@H]2OC(=O)O[C@@]21C , readout=MIC) returns 4

get_value(item= CC[C@H]1OC(=O)[C@H](C)[C@@H](O[C@H]2C[C@@](C)(OC)[C@@H](O)[C@H](C)O2)[C@H](C)[C@@H](O[C@@H]2O[C@H](C)C[C@H](N(C)C)[C@H]2O)[C@](C)(OC)C[C@@H](C)C(=O)[C@H](C)[C@@H](O)[C@]1(C)O , readout=MIC) returns 2

---

- Tested on: Staphylococcus epidermidis
- PROCEDURE_TEXT: Antibacterial activity against methicillin-sensitive Staphylococcus epidermidis 12-5 by broth microdilution method
- Assay type: functional
Please provide measured MIC for the entries that follow.

get_value(item= CC[C@H]1OC(=O)[C@H](C)[C@@H](O[C@H]2C[C@@](C)(OC)[C@@H](O[C@@H]3O[C@H](C)[C@@H](OCc4ccccc4)[C@H](N(C)C)[C@H]3OC(=O)c3ccccc3)[C@H](C)O2)[C@H](C)[C@@H](O[C@@H]2O[C@H](C)C[C@H](N(C)C)[C@H]2O)[C@@](C)(OC)C[C@@H](C)C(=O)[C@H](C)[C@H]2OC(=O)O[C@@]21C , readout=MIC) returns > 32 µg/mL

get_value(item= CC[C@H]1OC(=O)[C@H](C)[C@@H](O[C@H]2C[C@@](C)(OC)[C@@H](O[C@@H]3O[C@H](C)[C@@H](OCc4ccccc4)[C@H](N(C)C)[C@H]3O)[C@H](C)O2)[C@H](C)[C@@H](O[C@@H]2O[C@H](C)C[C@H](N(C)C)[C@H]2O)[C@@](C)(OC)C[C@@H](C)C(=O)[C@H](C)[C@@H](O)[C@]1(C)O , readout=MIC) returns > 32 µg/mL

get_value(item= CC[C@H]1OC(=O)[C@H](C)[C@@H](O[C@H]2C[C@@](C)(OC)[C@@H](O[C@@H]3O[C@H](C)[C@@H](O)[C@H](N(C)C)[C@H]3OC(=O)c3ccccc3)[C@H](C)O2)[C@H](C)[C@@H](O[C@@H]2O[C@H](C)C[C@H](N(C)C)[C@H]2O)[C@@](C)(OC)C[C@@H](C)C(=O)/C(C)=C/[C@]1(C)O , readout=MIC) returns 32 µg/mL

get_value(item= CC[C@H]1OC(=O)[C@H](C)[C@@H](O[C@H]2C[C@@](C)(OC)[C@@H](O[C@@H]3O[C@H](C)[C@@H](OCc4ccccc4)[C@H](N(C)C)[C@H]3OC(=O)c3ccccc3)[C@H](C)O2)[C@H](C)[C@@H](O[C@@H]2O[C@H](C)C[C@H](N(C)C)[C@H]2O)[C@@](C)(OC)C[C@@H](C)C(=O)[C@H](C)[C@@H](O)[C@]1(C)O , readout=MIC) returns > 32 µg/mL

get_value(item= CC[C@H]1OC(=O)[C@H](C)[C@@H](O[C@H]2C[C@@](C)(OC)[C@@H](O)[C@H](C)O2)[C@H](C)[C@@H](O[C@@H]2O[C@H](C)C[C@H](N(C)C)[C@H]2O)[C@](C)(OC)C[C@@H](C)C(=O)[C@H](C)[C@@H](O)[C@]1(C)O , readout=MIC) returns ≤ 1 µg/mL

get_value(item= CC[C@H]1OC(=O)[C@H](C)[C@@H](O[C@H]2C[C@@](C)(OC)[C@@H](O[C@@H]3O[C@H](C)[C@@H](O)[C@H](N(C)C)[C@H]3OC(=O)c3ccccc3)[C@H](C)O2)[C@H](C)[C@@H](O[C@@H]2O[C@H](C)C[C@H](N(C)C)[C@H]2O)[C@@](C)(OC)C[C@@H](C)C(=O)[C@H](C)[C@@H](O)[C@]1(C)O , readout=MIC) returns 32 µg/mL

get_value(item= CC[C@H]1OC(=O)[C@H](C)C(=O)[C@H](C)[C@@H](O[C@@H]2O[C@H](C)C[C@H](N(C)C)[C@H]2O)[C@](C)(OC)C[C@@H](C)C(=O)[C@H](C)[C@H]2N(CCCCn3cnc(-c4cccnc4)c3)C(=O)O[C@]12C , readout=MIC) returns ≤ 2 µg/mL

get_value(item= CC[C@H]1OC(=O)[C@H](C)[C@@H](O[C@H]2C[C@@](C)(OC)[C@@H](O[C@@H]3O[C@H](C)[C@@H](OCc4ccccc4)[C@H](N(C)C)[C@H]3O)[C@H](C)O2)[C@H](C)[C@@H](O[C@@H]2O[C@H](C)C[C@H](N(C)C)[C@H]2O)[C@@](C)(OC)C[C@@H](C)C(=O)[C@H](C)[C@H]2OC(=O)O[C@@]21C , readout=MIC) returns 16 µg/mL
